target: human TLR9 (Homo sapiens (Human)); experiment: TLR9 inhibition reporter assay (HEK-Blue SEAP); conditions: read-out: TLR9 IC50; HEK-Blue cells overexpressing human TLR9, ODN2006 5 nM stimulation, SEAP reporter
log10 IC50 values for the compounds below.
Transform log10 | Measure IC50 | Unit nM

Recorded results for 6 compounds are shown here.
>>> number("COc1cc(-c2[nH]c3ccc(C4CCC(NC5COC5)CC4)nc3c2C(C)C)cn2ncnc12 (stereo not drawn) [Example 180]")
3.27
>>> number("CC(C)c1c(-c2cc(CO)c3ncnn3c2)[nH]c2ccc(N3CCC(NCC#N)CC3)nc12")
3.74
>>> number("COc1cc(-c2[nH]c3ccc(N4CCN(CCC(C)(C)C)CC4)nc3c2C(C)C)cn2ncnc12")
3.88
>>> number("CC(C)c1c(-c2cn(C)c3ncccc23)[nH]c2ccc(N3CCC(NCCS(C)(=O)=O)CC3)nc12")
3.30
>>> number("CCN(CC)C1CCC(c2ccc3[nH]c(-c4cn5ncnc5c(C)c4C)c(C(C)C)c3n2)CC1 (stereo not drawn)")
3.21
>>> number("CNC1CCC(c2ccc3[nH]c(-c4cn5ncnc5c(C)c4C)c(C(C)C)c3n2)CC1 (single isomer, unassigned) [Example 367]")
2.92

Value of log10 IC50 reported for the compound COc1cc(-c2[nH]c3ccc(C4CCC(N(C)C)CC4)nc3c2C(C)C)cn2ncnc12 (stereo not drawn) [Example 179] is 3.24

Value of measured log10 IC50 for the entry `CCN(CCN(C)C)C(=O)c1nc2c(C(C)C)c(-c3cc(OC)c4ncnn4c3)[nH]c2cc1C` : 2.80

The recorded log10 IC50 for entry CC(C)c1c(-c2cc(CO)c3ncnn3c2)[nH]c2ccc(C3CCC(NCC(=O)N(C)C)CC3)nc12 (stereo not drawn) [Example 222] equals 2.82

====

Below, each of the molecules is paired with its reported IC50 value.
target: human TLR9 (Homo sapiens (Human), UniProt Q9NR96); test: TLR9 inhibition reporter assay (HEK-Blue SEAP); settings: read-out: TLR9 IC50; HEK-Blue cells overexpressing human TLR9, SEAP reporter, ODN2006 5 nM;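 further: SEAP driven by an IFN-β minimal promoter with NF-κB and AP-1 sites, read after 22 h, compounds dosed 0.05 nM–50 µM, inhibition scaled between agonist plus DMSO and reference-inhibitor wells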
Sequence (Q9NR96 26-1032): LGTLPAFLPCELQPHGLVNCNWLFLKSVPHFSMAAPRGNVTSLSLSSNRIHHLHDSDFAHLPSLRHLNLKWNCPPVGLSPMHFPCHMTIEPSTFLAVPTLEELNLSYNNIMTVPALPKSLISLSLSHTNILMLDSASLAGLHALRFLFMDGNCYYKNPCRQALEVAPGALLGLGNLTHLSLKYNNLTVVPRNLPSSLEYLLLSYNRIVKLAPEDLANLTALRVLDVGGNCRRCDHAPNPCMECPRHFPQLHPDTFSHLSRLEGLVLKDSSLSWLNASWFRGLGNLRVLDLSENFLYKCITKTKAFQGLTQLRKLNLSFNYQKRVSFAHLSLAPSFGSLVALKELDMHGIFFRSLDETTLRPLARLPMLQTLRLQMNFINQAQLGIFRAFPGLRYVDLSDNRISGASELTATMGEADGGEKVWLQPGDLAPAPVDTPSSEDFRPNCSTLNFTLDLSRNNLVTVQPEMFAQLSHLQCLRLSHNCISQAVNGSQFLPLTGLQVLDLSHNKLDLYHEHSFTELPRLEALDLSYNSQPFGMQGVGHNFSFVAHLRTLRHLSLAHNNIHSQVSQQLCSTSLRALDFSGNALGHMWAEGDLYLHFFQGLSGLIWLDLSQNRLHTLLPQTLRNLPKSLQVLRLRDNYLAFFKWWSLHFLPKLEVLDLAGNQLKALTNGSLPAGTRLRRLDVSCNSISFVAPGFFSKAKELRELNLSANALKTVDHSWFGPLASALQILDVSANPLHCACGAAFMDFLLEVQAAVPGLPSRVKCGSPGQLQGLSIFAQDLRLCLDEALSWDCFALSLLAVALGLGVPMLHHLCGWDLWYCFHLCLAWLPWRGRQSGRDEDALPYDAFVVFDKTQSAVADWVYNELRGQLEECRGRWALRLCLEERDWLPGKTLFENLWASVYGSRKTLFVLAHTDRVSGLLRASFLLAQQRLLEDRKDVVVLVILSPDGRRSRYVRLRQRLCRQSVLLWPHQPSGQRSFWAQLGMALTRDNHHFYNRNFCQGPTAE
Respond numerically; units are µM and should not be typed.

Example entries and their recorded answers appear below.
>>> number("Cc1cc2[nH]c(-c3cn4ncnc4c(C)c3C)c(C(C)C)c2nc1C1CCC(NC2COC2)CC1 (stereo not drawn) [Example 503]")
2.5
>>> number("COc1cc(-c2[nH]c3ccc(OCC4CCN(CC(C)(C)O)CC4)nc3c2C(C)C)cn2ncnc12")
0.918
>>> number("Cc1c(-c2[nH]c3ccc(N4C[C@H]5C[C@@H](C4)N5CCC(N)=O)nc3c2C(C)C)cn2ncnc2c1C")
9.05
>>> number("Cc1cc(-c2[nH]c3ccc(C4CCN(C5COC5)CC4)nc3c2C(C)C)cn(C)c1=O")
5.7
>>> number("Cc1c(-c2[nH]c3ccc(N4[C@@H]5CC[C@H]4CN(C(=O)CN(C)C)C5)nc3c2C(C)C)cn2ncnc2c1C")
7.38

Measured IC50 of `Cc1c(-c2[nH]c3ccc(C4CCN(CC(=O)N(C)C)CC4)nc3c2C(C)C)cn2ncnc2c1C` : 1.95

Noted for `Cc1cc(-c2[nH]c3ccc(C4CCNCC4)nc3c2C(C)C)cn2ncnc12` : its IC50 reads 0.155

Quick note, IC50 for COc1cc(-c2[nH]c3ccc(C4CCC(NC(C)C)C4)nc3c2C(C)C)cn2ncnc12 (stereo not drawn) landed at 4.39
